- particulars: in n-butanol, 288.15 K
measurement.name: solubility (mole fraction)
Answer with the value's number alone.

Can you look up the measured solubility (mole fraction) of `COc1ccc(C(=O)O)c(OC)c1` for me? 0.0086

---

- particulars: in n-propanol, 308.15 K
measurement.name: solubility (mole fraction)

// solubility (mole fraction) lookup, key: `COc1ccc(C(=O)O)c(OC)c1` 0.0252

---

- particulars: in ethanol, 323.15 K
measurement.name: solubility (mole fraction)
Simply state the number, no unit and no words.

Item under review: `COc1ccc(C(=O)O)c(OC)c1` . Reported solubility (mole fraction)? 0.0644

---

- particulars: in isobutanol, 288.15 K
measurement.name: solubility (mole fraction)
The reply should be a number, written without any unit.

Param item = `COc1ccc(C(=O)O)c(OC)c1` ; retrieve measured solubility (mole fraction). 0.0059

---

- particulars: in ethanol, 298.15 K
measurement.name: solubility (mole fraction)

Quick one: solubility (mole fraction) of `COc1ccc(C(=O)O)c(OC)c1` ? 0.0191

---

- particulars: in ethyl acetate, 303.15 K
measurement.name: solubility (mole fraction)
When you answer, write just the number.

Given the entry `COc1ccc(C(=O)O)c(OC)c1` , report its measured solubility (mole fraction). 0.0312

---

- particulars: in ethanol, 313.15 K
measurement.name: solubility (mole fraction)
Lab note: jot down the number only; don't add units.

Requested field: solubility (mole fraction). Item: `COc1ccc(C(=O)O)c(OC)c1` 0.0398

---

- particulars: in isobutanol, 298.15 K
measurement.name: solubility (mole fraction)
Number only, no unit.

Given `COc1ccc(C(=O)O)c(OC)c1` , state its recorded solubility (mole fraction). 0.0105

---

- particulars: in isopropanol, 318.15 K
measurement.name: solubility (mole fraction)
Enter a number only.

Sample `COc1ccc(C(=O)O)c(OC)c1` — what was its solubility (mole fraction)? 0.034

---

- particulars: in isopropanol, 293.15 K
measurement.name: solubility (mole fraction)
Please give the numeric answer without any surrounding text.

Can you look up the measured solubility (mole fraction) of `COc1ccc(C(=O)O)c(OC)c1` for me? 0.0081

---

- particulars: in n-butanol, 313.15 K
measurement.name: solubility (mole fraction)
Just the number, please, no unit after it.

What value of measured solubility (mole fraction) is listed for `COc1ccc(C(=O)O)c(OC)c1` ? 0.0309

---

- particulars: in isobutanol, 323.15 K
measurement.name: solubility (mole fraction)
The answer should be written as a number, with no unit following it.

What solubility (mole fraction) value was documented for this compound, `COc1ccc(C(=O)O)c(OC)c1` ? 0.0401

---

- particulars: in isopropanol, 288.15 K
measurement.name: solubility (mole fraction)
Give the figure by itself; no unit, no explanation.

Query: solubility (mole fraction); subject: `COc1ccc(C(=O)O)c(OC)c1` 0.0059

---

- particulars: in n-butanol, 293.15 K
measurement.name: solubility (mole fraction)
// return a plain number; no unit text

I would be grateful if you could share the reported solubility (mole fraction) for `COc1ccc(C(=O)O)c(OC)c1` . 0.0112

---

- particulars: in isopropanol, 303.15 K
measurement.name: solubility (mole fraction)

So what's the measured solubility (mole fraction) for this one? `COc1ccc(C(=O)O)c(OC)c1` 0.0147

---

- particulars: in ethyl acetate, 313.15 K
measurement.name: solubility (mole fraction)
Give a plain numeric answer without units written out.

What does the data say about its solubility (mole fraction)? Entry: `COc1ccc(C(=O)O)c(OC)c1` 0.0467

Values were extracted from BigSolDB 2.1.
